From: paper PMC3427785

# System: cytomegalovirus (CMV) Davis strain
# Assay text: Anti-CMV activity
# Assay type: cell-based
# Applied conditions: read-out: anti-CMV activity EC50, Davis strain
Metric: EC50

Some solved cases for reference:
1. OC[C@H]1O[C@@H](n2cnc3c(O)nc(-n4cc(-c5ccccc5)nn4)nc32)C[C@@H]1O [Compound 25] : 158 µM
2. OC[C@H]1O[C@@H](n2cnc3c(O)nc(-n4cc(-[c-]5cccc5)nn4)nc32)C[C@@H]1O.[Fe+2].c1cc[cH-]c1 [Compound 29] : ≥ 200 µM
3. CCCCc1cn(-c2nc(O)c3ncn([C@H]4C[C@H](O)[C@@H](CO)O4)c3n2)nn1 [Compound 30] : > 270 µM

*Q* What value of EC50 has been reported for the following compound? O=C1c2ccccc2C(=O)N1Cc1cn(-c2nc(O)c3ncn([C@H]4C[C@H](O)[C@@H](CO)O4)c3n2)nn1 [Compound 28]
*A* > 210 µM

*Q* What value of EC50 has been reported for the following compound? COc1ccc(-c2cn(-c3nc(O)c4ncn([C@H]5C[C@H](O)[C@@H](CO)O5)c4n3)nn2)cc1 [Compound 26]
*A* > 240 µM

*Q* What value of EC50 has been reported for the following compound? OCc1cn(-c2nc(O)c3ncn([C@H]4C[C@H](O)[C@@H](CO)O4)c3n2)nn1 [Compound 27]
*A* > 290 µM
